# assay details: RPMI8226 myeloma cell viability, profiling panel, resazurin fluorescence, basal, 24 h, PK04 Diversity Set (AID 1180);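 note: RPMI8826 multiple myeloma cell line at 5000 cells per well; test concentration not given here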
# recorded conditions: higher = more signal
Give satisfied when the value for z-score is at least -2. Give not satisfied when it is less.

Below are worked cases with known answers.
molecule	category
C#C[C@H](O[Si](C#Cc1ccc(Oc2ccccc2)cc1)(C(C)C)C(C)C)c1ccccc1	satisfied
COC(=O)[C@@]1(Cc2ccccc2)N=C(c2ccc(OCCCO)cc2)O[C@H]1c1ccccc1	not satisfied
COC(=O)[C@@]1(Cc2ccc(F)cc2)[C@H]2c3cc(C(=O)N(C)C)n(Cc4ccc(Cl)c(C(F)(F)F)c4)c3C[C@H]2CN1C(=O)c1ccccc1	not satisfied
CCCCC(CC)C(O)C1C=CC2C(=O)N(Cc3ccccc3)C(=O)C2N1n1cnnc1 (stereo not drawn)	satisfied

Q. hey, is z-score for this one >= -2? COC(=O)[C@]1(CCC(=O)OC(C)(C)C)N=C(c2ccc(OCCCO)cc2)O[C@@H]1c1ccccc1CN=[N+]=[N-]
A. not satisfied

Q. hey, is z-score for this one >= -2? CC(C)NC(=O)[C@@H]1c2ccccc2C(=O)N(C2Cc3ccccc3C2)[C@H]1c1ccc(CO)cc1
A. satisfied

Q. hey, is z-score for this one >= -2? C=C[C@H](C)[C@@H](OC(=O)Nc1ccc(OC)cc1)c1ccc(O)c2ccccc12
A. not satisfied

Q. hey, is z-score for this one >= -2? COC(=O)[C@@]1(Cc2ccc(F)cc2)[C@H]2c3cc(C(=O)N4CCCC4)n(Cc4ccc(S(C)(=O)=O)cc4)c3C[C@H]2CN1C(=O)c1ccccc1
A. satisfied

----------
# assay details: binders of probe aHhip on microarray, primary screen, stem cell growth factor project, biochemical, small-molecule microarray, fluorescence 635/667 (AID 1087);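 note: score merges spot fluorescence at 667nm with spot signal to noise ratio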
# recorded conditions: higher = more signal
endpoint name: composite z-score
Answer with the value's number alone.

smiles	composite z-score
C=CCOC(=O)[C@H]1[C@@H]2C(=O)O[C@@H](c3ccccc3)[C@@H](c3ccccc3)N2[C@@H](c2ccc(OCCOC(=O)[C@H]3C[C@H]4C(=O)N[C@@H](CCCCNC(C)=O)C(=O)N4[C@H]3c3cccc(OCCO)c3)cc2)[C@]12C(=O)Nc1ccccc12	-0.0994
[N-]=[N+]=NCc1ccccc1[C@@H]1OC(c2ccc(OCCCO)cc2)=N[C@]1(Cc1ccccc1)C(N)=O	-0.249

Q. Give its composite z-score value. Item: NC(=O)NCC#Cc1ccc2c(c1)[C@]1(C(=O)N2)[C@H](c2ccccc2OCCO)N2[C@H](c3ccccc3)[C@H](c3ccccc3)OC(=O)[C@H]2[C@@H]1C(=O)Nc1nc2ccccc2s1
A. -0.0296

----------
List of composite z-score values.
# target or system: Torsin-1A-interacting protein 1 (Homo sapiens)
# assay details: LAP1 binders from COS7 cell lysate, primary screen, small-molecule microarray, 635/667 nm fluorescence (AID 1116)
# recorded conditions: COS7-hLAP1 lysate binding, 635 nm fluorescence, higher = more signal
Answer with the value's number alone.

Worked cases, answers included:
compound	composite z-score
CO[C@H]1O[C@H](CO)[C@@H](OC(=O)Nc2ccc(Oc3ccccc3)cc2)[C@H](OC(=O)Nc2ccc3c(c2)OCO3)[C@H]1OC(=O)Nc1ccc2c(c1)OCO2	1.62
[N-]=[N+]=Nc1ccccc1[C@@H]1OC(c2ccc(OCCCO)cc2)=N[C@]1(CCS(=O)(=O)c1ccccc1)C(N)=O	1.81
COCCOC(=O)N1C(=O)[C@@]2(c3cc(C#Cc4ccc(OC)cc4)ccc31)[C@H](c1ccc(OCCO)cc1)N1[C@H](c3ccccc3)[C@H](c3ccccc3)OC(=O)[C@H]1[C@@H]2C(=O)N1CCN(c2ncccn2)CC1	0.391
COC(=O)[C@]1(CCC(=O)OC(C)(C)C)N=C(c2ccc(OCCCO)cc2)O[C@@H]1c1ccccc1CN=[N+]=[N-]	0.157
O=C(NC1CC1)[C@@H]1c2ccccc2C(=O)N(Cc2ccccc2Cl)[C@H]1c1ccc(CO)cc1	1.46

Q. Give the reported composite z-score for O=C(NCCN1CCOCC1)C1N=C(c2ccc(OCCCO)cc2)N(c2ccccc2)O1 (configuration not stated) (system: Torsin-1A-interacting protein 1 (Homo sapiens)).
A. 1.68

Q. Give the reported composite z-score for O=C1c2ccccc2[C@](Cc2ccccc2I)(C(=O)NCCN2CCOCC2)[C@H](c2ccc(CO)cc2)N1C1CCCCC1 (system: Torsin-1A-interacting protein 1 (Homo sapiens)).
A. 0.494

----------
# assay details: osmotic lysis modulators in infected erythrocytes, primary screen, PSAC antagonist project, cell-based, P. falciparum Indochina, OD700, 3 h (AID 1156)
# recorded conditions: higher = more signal, called active from +8 up or from −8 down
endpoint name: z-score
Answer with the value's number alone.

Worked cases, answers included:
molecule	z-score
CCC(CC)C(O)C1C=CC2C(=O)NC(=O)C2N1Nc1ccccn1 (stereo not given)	-0.02
CCCCCN1CC=CC23O[C@@H]4/C=C\CCC(C)OC(=O)C4[C@H]2C(=O)N(C(C)CO)[C@@H]3C1=O (stereo not given in full)	0.847

Q. Give its z-score value. Item: C=C[C@H](CO[Si](CC)(CC)CC)N(Cc1ccc(OC(C)=O)c(OC)c1)S(=O)(=O)c1ccc(Br)cc1
A. -0.738

Q. Give its z-score value. Item: COC(=O)[C@H](Cc1ccccc1)N[C@@H](/C=C/C1CC1)[C@H](O)Cc1ccccc1
A. -0.592

Q. Give its z-score value. Item: COc1cc2c(cc1O)C(C1CC1)N(Cc1sc3ccccc3c1Cl)CC2 (stereo not given)
A. -0.449

----------
# target or system: Focal adhesion kinase 1 (Homo sapiens) (UniProt Q05397)
# Sequence (Q05397 whole entry, looked up): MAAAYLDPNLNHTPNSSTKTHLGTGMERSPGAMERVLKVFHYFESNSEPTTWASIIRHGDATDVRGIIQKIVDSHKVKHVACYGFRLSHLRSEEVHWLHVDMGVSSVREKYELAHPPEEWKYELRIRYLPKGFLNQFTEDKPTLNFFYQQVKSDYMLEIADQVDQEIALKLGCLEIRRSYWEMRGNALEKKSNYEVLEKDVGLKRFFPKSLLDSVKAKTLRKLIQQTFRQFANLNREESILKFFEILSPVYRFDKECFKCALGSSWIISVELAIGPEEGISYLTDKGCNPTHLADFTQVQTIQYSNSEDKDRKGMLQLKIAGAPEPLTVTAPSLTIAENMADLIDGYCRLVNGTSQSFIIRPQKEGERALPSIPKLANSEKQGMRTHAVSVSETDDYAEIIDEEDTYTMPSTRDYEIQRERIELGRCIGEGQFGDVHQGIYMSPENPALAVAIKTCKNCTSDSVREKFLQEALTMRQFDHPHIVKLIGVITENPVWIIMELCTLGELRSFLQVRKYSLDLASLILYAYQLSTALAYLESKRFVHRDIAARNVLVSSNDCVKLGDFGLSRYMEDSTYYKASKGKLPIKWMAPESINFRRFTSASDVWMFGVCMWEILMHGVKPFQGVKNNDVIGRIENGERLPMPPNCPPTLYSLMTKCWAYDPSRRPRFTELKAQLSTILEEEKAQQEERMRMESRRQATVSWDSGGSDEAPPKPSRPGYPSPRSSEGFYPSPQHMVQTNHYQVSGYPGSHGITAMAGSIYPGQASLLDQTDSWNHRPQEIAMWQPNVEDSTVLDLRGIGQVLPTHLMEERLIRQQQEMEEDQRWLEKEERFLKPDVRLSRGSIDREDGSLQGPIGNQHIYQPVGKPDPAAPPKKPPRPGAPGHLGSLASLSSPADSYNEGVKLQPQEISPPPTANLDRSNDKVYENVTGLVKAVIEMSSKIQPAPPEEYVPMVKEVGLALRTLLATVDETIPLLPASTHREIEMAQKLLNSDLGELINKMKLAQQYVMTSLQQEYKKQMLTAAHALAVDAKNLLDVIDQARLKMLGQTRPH
# assay details: small-molecule microarray binders of FAK, primary screen, biochemical, 635/667 nm fluorescence, BSA, DTT (AID 1130);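 note: composite of spot emission at 667 nm and signal to noise over triplicate slides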
# recorded conditions: PTK2 binding, 635 nm fluorescence, higher = more signal
List of composite z-score values.

molecule	target or system	composite z-score
C=CCC(OC(C)=O)[C@@H]1[C@@H](N(Cc2ccc(-c3cccc(C(F)(F)F)c3)o2)C(=O)c2ccc(C)cc2)c2cc(OCCCO)ccc2N1C(=O)Cc1ccc2ccccc2c1 (some centres not stated)	Focal adhesion kinase 1 (Homo sapiens) (UniProt Q05397)	0.0103

Q. Give its composite z-score value. Item: COc1cc(Br)cc(C(O)C2C=CC3C(=O)N(C)C(=O)C3N2N2CCCCC2)c1OC (configuration not stated)
A. 0.446

Q. Give its composite z-score value. Item: O=C1C2C=CC(C(O)c3cc(C(F)(F)F)cc(C(F)(F)F)c3)N(n3cnnc3)C2C(=O)N1Cc1ccccc1 (configuration not stated)
A. -0.176

----------
# target or system: Homeobox protein Hox-A13 (Mus musculus) (UniProt Q62424)
# Sequence (Q62424 whole entry, looked up): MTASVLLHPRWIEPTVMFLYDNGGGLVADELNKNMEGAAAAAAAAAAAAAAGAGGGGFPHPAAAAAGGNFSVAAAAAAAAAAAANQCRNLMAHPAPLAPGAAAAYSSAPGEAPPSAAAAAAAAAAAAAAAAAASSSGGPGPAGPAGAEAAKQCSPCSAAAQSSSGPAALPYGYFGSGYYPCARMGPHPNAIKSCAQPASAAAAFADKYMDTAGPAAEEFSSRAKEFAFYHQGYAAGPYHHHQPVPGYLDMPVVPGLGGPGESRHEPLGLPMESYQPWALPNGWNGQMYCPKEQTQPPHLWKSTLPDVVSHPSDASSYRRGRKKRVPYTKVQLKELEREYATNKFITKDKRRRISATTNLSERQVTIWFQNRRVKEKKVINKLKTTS
# assay details: inhibitors of HoxA13-DNA binding, primary screen, biochemical, fluorescence polarization, labeled oligonucleotide (AID 1185)
# recorded conditions: 15 min, higher = more signal, called active from +8 up or from −8 down
endpoint name: z-score
Answer with the value's number alone.

Worked cases, answers included:
compound	target or system	z-score
COc1ccccc1CN1C(=O)c2ccccc2[C@@]2(Cc3ccccc3N(CC(C)C)C2=O)[C@@H]1c1ccc(CO)cc1	Homeobox protein Hox-A13 (Mus musculus) (UniProt Q62424)	-0.795
[N-]=[N+]=Nc1ccccc1[C@H]1OC(c2ccc(OCCCO)cc2)=N[C@@]1(CCS(=O)(=O)c1ccccc1)C(=O)NCC(O)CO (stereo partly drawn)	Homeobox protein Hox-A13 (Mus musculus) (UniProt Q62424)	-4.65
O=C(CS)NCCCCCCNC(=O)[C@@H]1C[C@@H]2C(=O)NCC(=O)N2[C@@H]1c1cccc(OCCO)c1	Homeobox protein Hox-A13 (Mus musculus) (UniProt Q62424)	-2.98
COC(=O)[C@@]1(Cc2ccc(OC)cc2)[C@H]2c3cc(C(=O)N4CCCC4)n(CCN4CNCC4=O)c3C[C@H]2CN1C(=O)c1ccccc1	Homeobox protein Hox-A13 (Mus musculus) (UniProt Q62424)	-4.34
C=C(CCCC)/C(=C/C[C@@H](OC(=O)c1ccncc1)c1ccc(OCCO)cc1)c1cc(C(=O)OC)ccc1OC	Homeobox protein Hox-A13 (Mus musculus) (UniProt Q62424)	-3.62
C=CCOC(=O)[C@H]1[C@@H]2C(=O)O[C@@H](c3ccccc3)[C@@H](c3ccccc3)N2[C@@H](c2ccc(OCCOC(=O)[C@H]3C[C@H]4C(=O)N[C@@H](CCCCNC(C)=O)C(=O)N4[C@H]3c3cccc(OCCO)c3)cc2)[C@]12C(=O)Nc1ccccc12	Homeobox protein Hox-A13 (Mus musculus) (UniProt Q62424)	-1.77
COCCOC(=O)N1C(=O)[C@@]2(c3cc(C#CC4(O)CCCCCC4)ccc31)[C@H](c1ccc(OCCO)cc1)N1[C@H](c3ccccc3)[C@H](c3ccccc3)OC(=O)[C@H]1[C@@H]2C(=O)N1CCN(c2ncccn2)CC1	Homeobox protein Hox-A13 (Mus musculus) (UniProt Q62424)	0.253
COC(=O)C(CC#Cc1ccc2c(c1)[C@]1(C(=O)N2)[C@H](c2ccc(OCCO)cc2)N2[C@H](c3ccccc3)[C@H](c3ccccc3)OC(=O)[C@H]2[C@@H]1C(=O)N1CCc2cc(OC)c(OC)cc2C1)C(=O)OC	Homeobox protein Hox-A13 (Mus musculus) (UniProt Q62424)	-1.29
COc1ccc(CCNC(=O)[C@@]2(Sc3ccc(C)cc3)CC(=O)N(C(C)C)[C@@H]2c2ccc(CO)cc2I)cc1	Homeobox protein Hox-A13 (Mus musculus) (UniProt Q62424)	-2.89
CC[C@@H]1C=C(C(=O)O)[C@H](c2ccc(Br)cc2)N1S(=O)(=O)c1ccc(C)cc1	Homeobox protein Hox-A13 (Mus musculus) (UniProt Q62424)	-3.11

Q. Give its z-score value. Item: CN1C(=O)C2C=CC(C(O)c3ccccc3)N(N(c3ccccc3)c3ccccc3)C2C1=O (stereo not drawn)
A. -1.72

Q. Give its z-score value. Item: COc1cc2c(cc1OC)CN(C(=O)[C@H]1[C@@H]3C(=O)O[C@@H](c4ccccc4)[C@@H](c4ccccc4)N3[C@@H](c3ccc(O)cc3)[C@]13C(=O)Nc1ccc(C#CCCO)cc13)CC2
A. -3.49

Q. Give its z-score value. Item: CCOC(=O)C1=CC[C@@H](c2ccccc2)N(S(=O)(=O)c2ccc(C)cc2)[C@H]1c1ccccc1C
A. -0.813

Provenance of the data: PubChem BioAssay
